- target_or_system: thrombin (Homo sapiens, UniProt P00734)
- test_description: Determination of the thrombin-inhibitory activity in plasma samples (ecarin-activated)
- Type: biochemical
- run_conditions: citrate plasma, ecarin activation, fluorogenic thrombin substrate; in some cases means of individual determinations
Measured pIC50 accompanies every entry in the list below.
pIC50 is defined as minus the log10 of a concentration measured in mol/L.

COc1cc(C(=O)N2CC(C)(C)OCC2CC(C)O)cc2nc(NCc3cc(Cl)ccn3)oc12 (single isomer, unassigned) [Example 63]: 7.70
COc1cc(C(=O)N2C[C@H](OC3CC3)C[C@H]2CO)cc2nc(NC(C)c3cc(Cl)ccn3)oc12 (stereo partly drawn) [Example 13]: 7.51
COc1cc(C(=O)N2CC(C)CCC2C2(O)CC2)cc2nc(NCc3cc(Cl)ccn3)oc12 (single isomer, unassigned) [Example 91]: 7.62
COc1cc(C(=O)N2CC(C)(CCO)OC[C@H]2C)cc2nc(NCc3cc(Cl)ccn3)oc12 (single isomer, unassigned): 7.92
COc1cc(C(=O)N2CC(C)(C)OCC2(C)CO)cc2nc(NCc3cc(Cl)ccn3)oc12 (single isomer, unassigned) [Example 40]: 7.48

Entry COc1cc(C(=O)N2CC(C)(C)NC(=O)C2CC#N)cc2nc(NCc3cc(Cl)ccn3)oc12 (single isomer, unassigned) [Example 84] has what pIC50?
7.68
